# Test system: 945468-187-T-J2-PDC spheroids viability
# EXPERIMENT NOTES: Anticancer human tumor 945468-187-T-J2-PDC patient-derived rectal carcinoma cell line growth inhibition [PI3K]
# CONDITIONS: second compound 0.1 µM; first compound 0.1 µM; stronger effect = lower value; spheroids with HUVEC and MSC
Task for the reader: assign each of the following molecules its reported viability, T/C.
Lab book: enter the figure in %, no units written.

Value sought: viability, T/C, system 945468-187-T-J2-PDC spheroids viability, item CC(Cn1ccc(-c2ccc(C#N)c(Cl)c2)n1)NC(=O)c1cc(C(C)O)[nH]n1 (stereo unspecified) + CC(Nc1ccc2c(c1)OCCn1cc(N3C(=O)OCC3C(F)F)nc1-2)C(N)=O . Result: 82

Value sought: viability, T/C, system 945468-187-T-J2-PDC spheroids viability, item CC(=O)c1c(C)c2cnc(Nc3ccc(N4CCNCC4)cn3)nc2n(C2CCCC2)c1=O + CC(Nc1ncnc2nc[nH]c12)c1cc2cccc(Cl)c2c(=O)n1-c1ccccc1 . Result: 101

Value sought: viability, T/C, system 945468-187-T-J2-PDC spheroids viability, item CC1(C)CCC(Nc2ncc(C(F)(F)F)c(-c3c[nH]c4c(P(C)(C)=O)c(C#N)ccc34)n2)CN1 (stereo unspecified) + COc1c(OCCCN2CCOCC2)ccc2c3n(c(=NC(=O)c4cnc(N)nc4)nc12)CCN3 . Result: 88.4

Value sought: viability, T/C, system 945468-187-T-J2-PDC spheroids viability, item CNC(=O)c1ccc(N2C(=S)N(c3ccc(C#N)c(C(F)(F)F)c3)C(=O)C2(C)C)cc1F + Cc1nc(NC(=O)N2CCCC2C(N)=O)sc1-c1ccnc(C(C)(C)C(F)(F)F)c1 . Result: 82

Value sought: viability, T/C, system 945468-187-T-J2-PDC spheroids viability, item C=CC(=O)N1CCN(c2nc(=O)n(-c3c(C)ccnc3C(C)C)c3nc(-c4c(O)cccc4F)c(F)cc23)C(C)C1 (stereo unspecified) + CC(Nc1ncnc2nc[nH]c12)c1cc2cccc(Cl)c2c(=O)n1-c1ccccc1 . Result: 82.7

Value sought: viability, T/C, system 945468-187-T-J2-PDC spheroids viability, item Cn1nccc1Nc1nccc(-c2ccn(C(CO)c3ccc(Cl)c(F)c3)c(=O)c2)n1 (stereo unspecified) + CC(Nc1ncnc2nc[nH]c12)c1cc2cccc(Cl)c2c(=O)n1-c1ccccc1 . Result: 86.5

Value sought: viability, T/C, system 945468-187-T-J2-PDC spheroids viability, item CC(C)n1nc(-c2ccc3oc(N)nc3c2)c2c(N)ncnc21 + COc1c(OCCCN2CCOCC2)ccc2c3n(c(=NC(=O)c4cnc(N)nc4)nc12)CCN3 . Result: 16.7

Value sought: viability, T/C, system 945468-187-T-J2-PDC spheroids viability, item CC(Cn1ccc(-c2ccc(C#N)c(Cl)c2)n1)NC(=O)c1cc(C(C)O)[nH]n1 (stereo unspecified) + CC(Nc1ncnc2nc[nH]c12)c1cc2cccc(Cl)c2c(=O)n1-c1ccccc1 . Result: 105

Value sought: viability, T/C, system 945468-187-T-J2-PDC spheroids viability, item Cn1ncnc1[C@H]1c2n[nH]c(=O)c3cc(F)cc(c23)N[C@@H]1c1ccc(F)cc1 + COc1c(OCCCN2CCOCC2)ccc2c3n(c(=NC(=O)c4cnc(N)nc4)nc12)CCN3 . Result: 88.1

Value sought: viability, T/C, system 945468-187-T-J2-PDC spheroids viability, item CC1(C)CCC(CN2CCN(c3ccc(C(=O)NS(=O)(=O)c4ccc(NCC5CCOCC5)c([N+](=O)[O-])c4)c(Oc4cnc5[nH]ccc5c4)c3)CC2)=C(c2ccc(Cl)cc2)C1 + COc1c(OCCCN2CCOCC2)ccc2c3n(c(=NC(=O)c4cnc(N)nc4)nc12)CCN3 . Result: 75

Value sought: viability, T/C, system 945468-187-T-J2-PDC spheroids viability, item CC(C)NCC(C(=O)N1CCN(c2ncnc3c2C(C)CC3O)CC1)c1ccc(Cl)cc1 (stereo unspecified) + Cc1nc(NC(=O)N2CCCC2C(N)=O)sc1-c1ccnc(C(C)(C)C(F)(F)F)c1 . Result: 109

----------
# System: 945468-187-T-J2-PDC spheroids viability
# EXPERIMENT NOTES: Anticancer human tumor 945468-187-T-J2-PDC cell line growth inhibition [PI3K];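 further: spheroids exposed to compounds for seven days before reading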
# CONDITIONS: second compound 0.0316 µM; first compound 0.0316 µM; stronger effect = lower value; spheroids with HUVEC and MSC
# From the text: Combinatorial screen of targeted agents with the PI3K inhibitors inavolisib, alpelisib, duvelisib, and copanlisib in multi-cell type tumor spheroids A high-throughput screen of multi-cell type tumor spheroids was designed to identify active combinations of targeted small molecules and PI3K pathway inhibitors. […] Compounds. […] If the clinical Cmax for an agent had not been determined, the highest concentration tested was 10 microM. […]
OBSERVATION TYPE: viability, T/C (%)
Lab book: enter the figure in %, no units written.

Briefly, viability, T/C measured for CCCS(=O)(=O)Nc1ccc(F)c(C(=O)c2c[nH]c3ncc(-c4ccc(Cl)cc4)cc23)c1F + COc1c(OCCCN2CCOCC2)ccc2c3n(c(=NC(=O)c4cnc(N)nc4)nc12)CCN3 : 100

Briefly, viability, T/C measured for CCCS(=O)(=O)Nc1ccc(F)c(C(=O)c2c[nH]c3ncc(-c4ccc(Cl)cc4)cc23)c1F + CC(Nc1ccc2c(c1)OCCn1cc(N3C(=O)OCC3C(F)F)nc1-2)C(N)=O : 103

Briefly, viability, T/C measured for CC(C)n1nc(-c2ccc3oc(N)nc3c2)c2c(N)ncnc21 + Cc1nc(NC(=O)N2CCCC2C(N)=O)sc1-c1ccnc(C(C)(C)C(F)(F)F)c1 : 77.9

Briefly, viability, T/C measured for CCN1CCN(Cc2ccc(Nc3ncc(F)c(-c4cc(F)c5nc(C)n(C(C)C)c5c4)n3)nc2)CC1 + COc1c(OCCCN2CCOCC2)ccc2c3n(c(=NC(=O)c4cnc(N)nc4)nc12)CCN3 : 92.9

Briefly, viability, T/C measured for CCN1CCN(Cc2ccc(Nc3ncc(F)c(-c4cc(F)c5nc(C)n(C(C)C)c5c4)n3)nc2)CC1 + CC(Nc1ccc2c(c1)OCCn1cc(N3C(=O)OCC3C(F)F)nc1-2)C(N)=O : 95.2

----------
# Tested on: 945468-187-T-J2-PDC spheroids viability
# EXPERIMENT NOTES: Anticancer human tumor 945468-187-T-J2-PDC cell line growth inhibition [PI3K];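 further: spheroids exposed to compounds for seven days before reading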
# CONDITIONS: second compound 10 µM; first compound 3.16 µM; stronger effect = lower value; spheroids with HUVEC and MSC
# Excerpt: Combinatorial screen of targeted agents with the PI3K inhibitors inavolisib, alpelisib, duvelisib, and copanlisib in multi-cell type tumor spheroids A high-throughput screen of multi-cell type tumor spheroids was designed to identify active combinations of targeted small molecules and PI3K pathway inhibitors. […] Compounds. […] If the clinical Cmax for an agent had not been determined, the highest concentration tested was 10 microM. […]
OBSERVATION TYPE: viability, T/C (%)
Lab book: enter the figure in %, no units written.

Briefly, viability, T/C measured for CC(C)NCC(C(=O)N1CCN(c2ncnc3c2C(C)CC3O)CC1)c1ccc(Cl)cc1 (stereo unspecified) + Cc1nc(NC(=O)N2CCCC2C(N)=O)sc1-c1ccnc(C(C)(C)C(F)(F)F)c1 : 93.8

Briefly, viability, T/C measured for CC1(C)CCC(CN2CCN(c3ccc(C(=O)NS(=O)(=O)c4ccc(NCC5CCOCC5)c([N+](=O)[O-])c4)c(Oc4cnc5[nH]ccc5c4)c3)CC2)=C(c2ccc(Cl)cc2)C1 + Cc1nc(NC(=O)N2CCCC2C(N)=O)sc1-c1ccnc(C(C)(C)C(F)(F)F)c1 : 75.5

Briefly, viability, T/C measured for C[C@@H](NC(=O)c1ncnc(N)c1Cl)c1ncc(C(=O)Nc2cc(C(F)(F)F)c(Cl)cn2)s1 + Cc1nc(NC(=O)N2CCCC2C(N)=O)sc1-c1ccnc(C(C)(C)C(F)(F)F)c1 : 72.2

Briefly, viability, T/C measured for CC1(C)CCC(Nc2ncc(C(F)(F)F)c(-c3c[nH]c4c(P(C)(C)=O)c(C#N)ccc34)n2)CN1 (stereo unspecified) + CC(Nc1ncnc2nc[nH]c12)c1cc2cccc(Cl)c2c(=O)n1-c1ccccc1 : 39

Briefly, viability, T/C measured for CC(Cn1ccc(-c2ccc(C#N)c(Cl)c2)n1)NC(=O)c1cc(C(C)O)[nH]n1 (stereo unspecified) + Cc1nc(NC(=O)N2CCCC2C(N)=O)sc1-c1ccnc(C(C)(C)C(F)(F)F)c1 : 69

Briefly, viability, T/C measured for CNC(=O)c1ccc(N2C(=S)N(c3ccc(C#N)c(C(F)(F)F)c3)C(=O)C2(C)C)cc1F + CC(Nc1ncnc2nc[nH]c12)c1cc2cccc(Cl)c2c(=O)n1-c1ccccc1 : 113

Briefly, viability, T/C measured for C=CC(=O)N1CCN(c2nc(=O)n(-c3c(C)ccnc3C(C)C)c3nc(-c4c(O)cccc4F)c(F)cc23)C(C)C1 (stereo unspecified) + CC(Nc1ncnc2nc[nH]c12)c1cc2cccc(Cl)c2c(=O)n1-c1ccccc1 : 92.4

Briefly, viability, T/C measured for C[C@@H](NC(=O)c1ncnc(N)c1Cl)c1ncc(C(=O)Nc2cc(C(F)(F)F)c(Cl)cn2)s1 + CC(Nc1ncnc2nc[nH]c12)c1cc2cccc(Cl)c2c(=O)n1-c1ccccc1 : 119

Briefly, viability, T/C measured for CC1(C)CCC(Nc2ncc(C(F)(F)F)c(-c3c[nH]c4c(P(C)(C)=O)c(C#N)ccc34)n2)CN1 (stereo unspecified) + Cc1nc(NC(=O)N2CCCC2C(N)=O)sc1-c1ccnc(C(C)(C)C(F)(F)F)c1 : 60.2

Briefly, viability, T/C measured for C#Cc1c(F)ccc2cc(O)cc(-c3ncc4c(N5CC6CCC(C5)N6)nc(OCC56CCCN5CC(F)C6)nc4c3F)c12 (stereo unspecified) + Cc1nc(NC(=O)N2CCCC2C(N)=O)sc1-c1ccnc(C(C)(C)C(F)(F)F)c1 : 77

Briefly, viability, T/C measured for CCCS(=O)(=O)Nc1ccc(F)c(C(=O)c2c[nH]c3ncc(-c4ccc(Cl)cc4)cc23)c1F + CC(Nc1ncnc2nc[nH]c12)c1cc2cccc(Cl)c2c(=O)n1-c1ccccc1 : 93.5
